Test system: T47D
Method Summary: NCI tumour cell line growth inhibition, 48 h
Active and inactive are the calls of the source. No stated cut-off is given here; in the data, active = GI50 up to about 1.1 µM and inactive = higher.
Would you mind telling me the reported GI50 of each entry?

Entry CCCC[C@H]1[C@@H](OCOc2ccccc2)COC(=O)N1[C@H](C)c1ccccc1 , GI50 reported as 11.3 µM (inactive)

Record COCN1C(=O)[C@@H]2C[C@@H](O)CN2C(=O)c2ccccc21 . Reported GI50: > 100 µM (inactive)

Record CNC(=O)CN(C)C(=O)CCC(=O)N(C)C . Reported GI50: > 100 µM (inactive)

The reported value for OC(c1cc(-c2ccccc2)nc2c1ccc1ccccc12)C1CCCCN1 (stereo not drawn) in terms of GI50 is 1.93 µM (inactive)

Per the records, this compound ( CC(/C=N/N=C(N)N)=N\N=C(N)N ) has GI50 equal to 1.91 µM (inactive)

Kindly note the recorded GI50 for COc1c(OC)c(O)c2c(=O)c(OC)c(-c3ccc4c(c3)OCO4)oc2c1O , which is 24.5 µM (inactive)

GI50 for CN1CCN(CCCBr)CC1 is > 100 µM (inactive)

Value of measured GI50 for the entry CCSCCCN(CCCSCC)CCCSCC : > 100 µM (inactive)

* * *

Test system: U-251
Method Summary: NCI tumour cell line growth inhibition, 48 h
Active and inactive are the calls of the source. Cut-off read from the data, not from the text of the source: active = GI50 up to about 1.1 µM and inactive = higher. Non-standard residues stand in square brackets, D forms with d. Residues, ends and D or L forms follow the SMILES beside them. ξ: configuration not given here. *: point of attachment. ξHyp = O=C(O)C1CC(O)CN1; Cbz = O=C(OCc1ccccc1)*
I'd be grateful if you could share measured GI50 for these entries.

Summary line: Cc1cc(N(CCOS(C)(=O)=O)CCOS(C)(=O)=O)ccc1/C=N/c1ccc(-c2nc(Cc3ccccc3)sc2C)cc1 , U-251, reported GI50 = 6.64 µM (inactive)

GET /values?item= C=CCCC1CCCCC/C1=N\N(C)C (centres undefined) &system= U-251 returns GI50: > 100 µM (inactive)

Entry CCSc1cc(=O)n(C)c(=O)n1C under U-251 had GI50 of > 100 µM (inactive)

Here COc1ccc(/C=C(\Cl)c2ccc(OC)cc2)cc1 was tested on U-251, and its GI50 came to > 100 µM (inactive)

U-251 data for CNC(=O)OC1/C(C)=C\C(C)C(O)C(OC)CC(C)CC2=C(OC)C(=O)C=C(C2=O)N(C)C(=O)/C(C)=C/C=C\C1OC (centres undefined) ; its GI50: 15.2 µM (inactive)

Short answer on U-251 for CC(C)C1CC[C@H](C)C[C@@H]1OC(=O)C(C(=O)O[C@H]1C[C@@H](C)CCC1C(C)C)C(O)[C@@H]1OC(C)(C)O[C@H]1C1COC(C)(C)O1 (some centres undefined) , GI50: 14.2 µM (inactive)

Per the reported U-251 data, CN(C)N1C(=O)CC2(CCN(CCCC(=O)c3ccc(F)cc3)CC2)C1=O has GI50 of > 100 µM (inactive)

With U-251 as the test system, NC(=O)CNC(=O)C1CC(O)CN1C(=O)OCc1ccccc1 (centres undefined) (Cbz-[ξHyp]-Gly-NH2) showed GI50 of > 100 µM (inactive)

Assay U-251, sample COC(=O)C1=Nc2c(C)nn(-c3ccccc3)c2N=C(c2ccc(C)cc2)C1 , GI50 read: > 10 µM (inactive)
